Each recorded value in this set is attributed to ChEMBL document CHEMBL1944593.

Molecular target: Nitric oxide sythases; iNOS & nNOS (Homo sapiens) (UniProt P29475+P35228)
Sequence (P29475 whole entry, looked up): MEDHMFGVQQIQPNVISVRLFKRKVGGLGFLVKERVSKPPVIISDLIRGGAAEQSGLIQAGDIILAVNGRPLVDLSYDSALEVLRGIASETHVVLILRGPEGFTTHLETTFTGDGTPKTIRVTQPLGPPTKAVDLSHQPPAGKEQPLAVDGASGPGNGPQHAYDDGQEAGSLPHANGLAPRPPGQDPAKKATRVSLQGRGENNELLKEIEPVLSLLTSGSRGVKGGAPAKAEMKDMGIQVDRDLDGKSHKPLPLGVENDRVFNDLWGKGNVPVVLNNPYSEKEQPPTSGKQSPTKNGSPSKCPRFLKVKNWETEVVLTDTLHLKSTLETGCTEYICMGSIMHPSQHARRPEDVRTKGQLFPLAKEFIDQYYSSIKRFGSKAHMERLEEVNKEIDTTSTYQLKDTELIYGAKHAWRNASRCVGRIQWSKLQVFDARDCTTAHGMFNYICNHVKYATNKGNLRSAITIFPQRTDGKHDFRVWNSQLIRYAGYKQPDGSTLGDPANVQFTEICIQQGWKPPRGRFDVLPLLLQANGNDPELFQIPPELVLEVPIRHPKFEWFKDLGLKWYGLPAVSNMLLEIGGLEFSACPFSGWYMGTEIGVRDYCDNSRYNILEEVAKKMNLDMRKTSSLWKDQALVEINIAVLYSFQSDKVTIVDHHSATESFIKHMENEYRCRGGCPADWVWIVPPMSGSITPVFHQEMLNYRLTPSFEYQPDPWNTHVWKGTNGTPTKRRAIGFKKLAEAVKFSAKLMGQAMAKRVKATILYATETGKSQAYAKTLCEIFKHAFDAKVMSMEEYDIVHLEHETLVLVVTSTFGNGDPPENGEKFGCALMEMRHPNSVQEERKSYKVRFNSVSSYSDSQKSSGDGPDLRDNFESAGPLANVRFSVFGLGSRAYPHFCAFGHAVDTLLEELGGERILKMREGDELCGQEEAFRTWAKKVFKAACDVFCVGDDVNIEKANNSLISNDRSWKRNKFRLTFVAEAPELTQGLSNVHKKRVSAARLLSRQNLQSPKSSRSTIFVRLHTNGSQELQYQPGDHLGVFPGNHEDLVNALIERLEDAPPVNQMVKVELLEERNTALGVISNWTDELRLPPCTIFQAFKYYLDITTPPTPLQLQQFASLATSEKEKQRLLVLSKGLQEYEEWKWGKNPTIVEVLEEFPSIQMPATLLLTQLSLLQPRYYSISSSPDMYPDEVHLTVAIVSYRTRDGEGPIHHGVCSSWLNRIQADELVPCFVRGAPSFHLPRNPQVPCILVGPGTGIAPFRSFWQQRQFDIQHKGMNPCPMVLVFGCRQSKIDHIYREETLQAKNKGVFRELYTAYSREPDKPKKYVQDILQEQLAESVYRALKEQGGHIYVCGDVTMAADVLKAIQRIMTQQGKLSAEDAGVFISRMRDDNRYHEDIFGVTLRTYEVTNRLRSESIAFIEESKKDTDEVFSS
Sequence (P35228 whole entry, looked up): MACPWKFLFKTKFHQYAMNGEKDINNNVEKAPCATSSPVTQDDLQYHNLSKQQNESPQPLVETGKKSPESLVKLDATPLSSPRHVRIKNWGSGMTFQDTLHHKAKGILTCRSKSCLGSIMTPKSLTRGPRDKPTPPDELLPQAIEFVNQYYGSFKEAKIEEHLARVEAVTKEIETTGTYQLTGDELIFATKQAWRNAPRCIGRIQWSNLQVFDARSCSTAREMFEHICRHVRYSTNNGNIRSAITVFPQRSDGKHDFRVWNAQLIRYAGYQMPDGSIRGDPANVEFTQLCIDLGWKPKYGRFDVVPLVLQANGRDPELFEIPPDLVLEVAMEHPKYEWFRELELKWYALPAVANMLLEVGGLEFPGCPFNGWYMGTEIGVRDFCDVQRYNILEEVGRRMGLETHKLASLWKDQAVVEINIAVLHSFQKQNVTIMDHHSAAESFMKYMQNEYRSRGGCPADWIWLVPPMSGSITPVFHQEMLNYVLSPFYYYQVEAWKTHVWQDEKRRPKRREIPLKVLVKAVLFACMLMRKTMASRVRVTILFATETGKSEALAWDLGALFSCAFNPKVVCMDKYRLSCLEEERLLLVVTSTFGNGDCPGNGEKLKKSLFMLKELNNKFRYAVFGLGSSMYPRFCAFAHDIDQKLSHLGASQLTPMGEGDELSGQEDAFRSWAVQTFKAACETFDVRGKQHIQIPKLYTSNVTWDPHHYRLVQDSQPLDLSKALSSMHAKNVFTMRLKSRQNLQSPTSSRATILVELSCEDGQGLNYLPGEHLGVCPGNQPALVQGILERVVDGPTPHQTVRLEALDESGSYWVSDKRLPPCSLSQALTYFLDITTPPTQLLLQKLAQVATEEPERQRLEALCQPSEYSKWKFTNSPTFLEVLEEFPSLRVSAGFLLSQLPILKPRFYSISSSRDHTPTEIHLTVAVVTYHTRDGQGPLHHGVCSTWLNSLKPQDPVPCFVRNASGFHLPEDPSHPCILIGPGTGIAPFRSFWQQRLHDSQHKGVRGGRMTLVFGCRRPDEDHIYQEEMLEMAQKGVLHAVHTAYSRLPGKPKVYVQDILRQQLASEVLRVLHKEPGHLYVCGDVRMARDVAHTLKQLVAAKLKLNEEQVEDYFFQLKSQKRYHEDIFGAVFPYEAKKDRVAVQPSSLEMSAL
Test: Selectivity ratio of IC50 for human nNOS to IC50 for human iNOS
measured_endpoint: Ratio IC50

{"columns": ["substance_smiles", "measured_endpoint", "reported_measurement"],
 "data": [
  ["CN(C)c1cc(N(Cc2cc(=O)[nH]c3c(F)c(F)ccc23)c2cccc(Cl)c2)ncn1", "Ratio IC50", 20],
  ["O=c1cc(CN(c2cccc(Cl)c2)c2ccncn2)c2ccc(F)c(F)c2[nH]1", "Ratio IC50", 11],
  ["[O-][n+]1cc(CN(c2cccc(Cl)c2)c2ncccn2)c2ccc(F)c(F)c2c1", "Ratio IC50", 9],
  ["O=c1cc(CN(Cc2ccccc2Cl)c2cnccn2)c2ccc(F)c(F)c2[nH]1", "Ratio IC50", 5],
  ["Cc1ccccc1CN(Cc1cc(=O)[nH]c2c(F)c(F)ccc12)c1cnccn1", "Ratio IC50", 5],
  ["O=c1cc(CN(c2cncnc2)c2cccc(Cl)c2)c2ccc(F)c(F)c2[nH]1", "Ratio IC50", 8],
  ["O=c1cc(CN(Cc2ccccc2F)c2cnccn2)c2ccc(F)c(F)c2[nH]1", "Ratio IC50", 5],
  ["O=c1cc(CN(c2ccncc2)c2cccc(Cl)c2)c2ccc(F)c(F)c2[nH]1", "Ratio IC50", 2],
  ["O=c1cc(CN(c2cccc(Cl)c2)c2ncccn2)c2ccc(F)c(F)c2[nH]1", "Ratio IC50", 5],
  ["O=c1cc(CN(c2cccnc2)c2cccc(Cl)c2)c2ccc(F)c(F)c2[nH]1", "Ratio IC50", 5]
]}
